Values were extracted from the supplement of paper PMC10307832.

Kindly supply the reported relative viability values for the records listed here.
Tested on: NCI-H1975
Assay: relative viability (nuclei count vs DMSO), 5 days (fraction); higher = more cells survive
Settings: first compound 0.03162 µM
Give bare numbers.

Consider the following illustrative entries.
compound	result.value
CCN(CC)CCCCNc1ncc2cc(-c3cc(OC)cc(OC)c3)c(NC(=O)NC(C)(C)C)nc2n1 + CC(C)C[C@H](NC(=O)[C@H](Cc1ccccc1)NC(=O)c1cnccn1)B(O)O [Bortezomib] (partner 0.002 µM)	0.375
O=c1cc(N2CCOCC2)oc2c(-c3cccc4c3sc3ccccc34)cccc12 + CS(=O)(=O)CCNCc1ccc(-c2ccc3ncnc(Nc4ccc(OCc5cccc(F)c5)c(Cl)c4)c3c2)o1 [Lapatinib] (partner 2 µM)	0.84
O=c1cc(N2CCOCC2)oc2c(-c3cccc4c3sc3ccccc34)cccc12 + CC1(C)CCC(c2ccc(Cl)cc2)=C(CN2CCN(c3ccc(C(=O)NS(=O)(=O)c4ccc(N[C@H](CCN5CCOCC5)CSc5ccccc5)c(S(=O)(=O)C(F)(F)F)c4)cc3)CC2)C1 [Navitoclax] (partner 0.5 µM)	1.13

--- query ---
Please give the documented relative viability of CCN(CC)CCCCNc1ncc2cc(-c3cc(OC)cc(OC)c3)c(NC(=O)NC(C)(C)C)nc2n1 + CCNC(=O)c1noc(-c2cc(C(C)C)c(O)cc2O)c1-c1ccc(CN2CCOCC2)cc1 [Luminespib] (partner 0.01 µM)
0.148
